Ref: patent US11046686B2

System: TNFα
assay_summary: IRAK4 Monocyte TNFα Cell Based Assay
Design: species or system human
run_parameters: Homo sapiens, Monocyte, read-out: EC50 MONO TNF HTRF
reported_endpoint: pEC50
Quick note: pEC50 means taking -log10 of the concentration in moles per liter.

Please report the recorded pEC50 for CC(=O)N1[C@@H]2COC[C@H]1CN(c1nnc(-c3cnc(-c4ccc5cc(C#N)cnn45)cc3NC(C)C)s1)C2 .
7.95

Sample N#Cc1cnn2c(-c3cc(NC4CCOCC4)c(-c4nnc(N5CC6CC(C5)O6)s4)cn3)ccc2c1 — what was its pEC50?
8.08

Entry CC(=O)N1C2CC1CN(c1nnc(-c3cnc(-c4ccc5cc(C#N)cnn45)cc3NC3(C)COC3)s1)C2 has what pEC50?
8.06

Query (compound): CC(C)Nc1cc(-c2ccc3cc(C#N)cnn23)ncc1-c1nnc(N2CC3CC(C2)O3)s1 ; field requested: pEC50
8.19
